Hey, just so you know, these numbers are from patent US20200024330A1.

In this section we review reported IC50 neutralization values for a set of binders.
- Measurement target: HIV-1 93IN905 envelope glycoprotein (Env) (HIV-1)
- Assay info: cell-based or functional assay
Quick note: give the figure in µg/mL, leave out the unit.

PGT-136 (antibody, V domains shown) VH: QLQLQESGPGLVKPSETLSLTCTVSGGSMRGTDWGENDFHYGWIRQSSAKGLEWIGSIHWRGRTTHYKTSFRSRATLSIDTSNNRFSLTFSFVTAADTAVYYCARHKYHDIFRVVPVAGWFDPWGQGLLVTVSS VL: EIVMTQSPPTLSVSPGETATLSCRASQNVKNNLAWYQLKPGQAPRLLIFDASSRAGGIPDRFSGSGYGTDFTLTVNSVQSEDFGDYFCQQYEEWPRTFGQGTKVDIK    0.0135
PGT-135 (antibody, V domains shown) VH: QLQMQESGPGLVKPSETLSLSCTVSGDSIRGGEWGDKDYHWGWVRHSAGKGLEWIGSIHWRGTTHYKESLRRRVSMSIDTSRNWFSLRLASVTAADTAVYFCARHRHHDVFMLVPIAGWFDVWGPGVQVTVSS VL: EIVMTQSPDTLSVSPGETVTLSCRASQNINKNLAWYQYKPGQSPRLVIFETYSKIAAFPARFVASGSGTEFTLTINNMQSEDVAVYYCQQYEEWPRTFGQGTKVDIK    0.0183

// next entry
response.value for PGT-126 (antibody, V domains shown) VH: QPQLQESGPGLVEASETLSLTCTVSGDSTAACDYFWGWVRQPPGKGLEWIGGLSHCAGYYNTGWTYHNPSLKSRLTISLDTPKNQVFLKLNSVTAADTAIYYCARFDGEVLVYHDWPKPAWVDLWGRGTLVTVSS VL: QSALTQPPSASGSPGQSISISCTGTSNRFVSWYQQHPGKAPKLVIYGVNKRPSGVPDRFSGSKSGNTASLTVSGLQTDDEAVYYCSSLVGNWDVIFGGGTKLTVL (field: IC50 neutralization) = 0.0194
